- assay.method.text: Solubility of the compound
- Type: physicochemical
metric.name: solubility

structure.as.smiles	metric.name	result
Cc1c2c(n3c1CCN(C(=O)CCN)CC[C@H](C)Nc1cc-3ccc1C(N)=O)CC(C)(C)CC2=O	solubility	> 100 µg/mL
Cc1c2c(n3c1CC(=O)N(CCN(C)C)CC[C@H](C)Nc1cc-3ccc1C(N)=O)CC(C)(C)CC2=O	solubility	> 100 µg/mL
Cc1c2c(n3c1CC(=O)N(C)CC[C@H](C)Nc1cc-3ccc1C(N)=O)CC(C)(C)CC2=O	solubility	> 100 µg/mL
Cc1c2c(n3c1CCCN(C)C(=O)[C@H](C)Nc1cc-3ccc1C(N)=O)CC(C)(C)CC2=O	solubility	34 µg/mL

* * *

- assay.method.text: Antiproliferative activity against human U87MG cells
- condition.notes: u-87mg atcc
metric.name: IC50 (µM)

structure.as.smiles	metric.name	measure.unit	quantitative.result
Cc1c2c(n3c1CCCNC(=O)[C@H](C)Nc1cc-3ccc1C(N)=O)CC(C)(C)CC2=O	IC50	µM	0.08

* * *

- assay.method.text: Half life in rat liver microsomes
- Type: ADME, Microsome

structure.as.smiles	half-life
Cc1c2c(n3c1CC(=O)N(CCN(C)C)CC[C@H](C)Nc1cc-3ccc1C(N)=O)CC(C)(C)CC2=O	> 30 min
CC(=O)N1CCCc2c(C)c3c(n2-c2ccc(C(N)=O)c(c2)N[C@@H](C)C1)CC(C)(C)CC3=O	11 min
Cc1c2c(n3c1CCCN[C@H](C)CNc1cc-3ccc1C(N)=O)CC(C)(C)CC2=O	> 30 min
CC(=O)NCCN1CC[C@H](C)Nc2cc(ccc2C(N)=O)-n2c(c(C)c3c2CC(C)(C)CC3=O)CC1=O	> 30 min
Cc1c2c(n3c1CCN(C(=O)CN(C)C)CC[C@H](C)Nc1cc-3ccc1C(N)=O)CC(C)(C)CC2=O	3 min
Cc1c2c(n3c1CC(=O)NCC[C@H](C)Nc1cc-3ccc1C(N)=O)CC(C)(C)CC2=O	> 30 min
Cc1c2c(n3c1CC(=O)N(C(C)C)CC[C@H](C)Nc1cc-3ccc1C(N)=O)CC(C)(C)CC2=O	12 min
Cc1c2c(n3c1CCCNC(=O)[C@H](C)Nc1cc-3ccc1C(N)=O)CC(C)(C)CC2=O	> 30 min

* * *

- assay.method.text: Solubility of the compound
- Assay type: physicochemical
Reported solubility values are given for each entry in this list.

structure.as.smiles	solubility
Cc1c2c(n3c1CCCNC[C@H](C)Nc1cc-3ccc1C(N)=O)CC(C)(C)CC2=O	> 100 µg/mL
Cc1c2c(n3c1CCCN[C@H](C)CNc1cc-3ccc1C(N)=O)CC(C)(C)CC2=O	> 100 µg/mL
Cc1c2c(n3c1CCCNC(=O)[C@H](C)Nc1cc-3ccc1C(N)=O)CC(C)(C)CC2=O	> 100 µg/mL
Cc1c2c(n3c1CC(=O)N(C(C)C)CC[C@H](C)Nc1cc-3ccc1C(N)=O)CC(C)(C)CC2=O	> 100 µg/mL
Cc1c2c(n3c1CC(=O)NCC[C@H](C)Nc1cc-3ccc1C(N)=O)CC(C)(C)CC2=O	> 100 µg/mL
CC(=O)N1CCCc2c(C)c3c(n2-c2ccc(C(N)=O)c(c2)NC[C@H]1C)CC(C)(C)CC3=O	> 100 µg/mL
CC(=O)NCCN1CC[C@H](C)Nc2cc(ccc2C(N)=O)-n2c(c(C)c3c2CC(C)(C)CC3=O)CC1=O	> 100 µg/mL
CC(=O)NCC(=O)N1CCc2c(C)c3c(n2-c2ccc(C(N)=O)c(c2)N[C@@H](C)CC1)CC(C)(C)CC3=O	5 µg/mL

* * *

- assay.method.text: Plasma concentration in human MDA-MB-361 xenograft in vivo model at 50 mg/kg, po measured at 24 hrs post dose
- Format: ADME, organism-based
- Design: dose 50 mg/kg, route oral

structure.as.smiles	concentration at 24 h / ng/mL
Cc1c2c(n3c1CCCNC(=O)[C@H](C)Nc1cc-3ccc1C(N)=O)CC(C)(C)CC2=O	8

* * *

- assay.method.text: Plasma concentration human MDA-MB-361 xenograft in vivo model at 50 mg/kg, po measured at 6 hrs post dose
- Type: ADME, organism-based
- Design: dose 50 mg/kg, route oral

structure.as.smiles	concentration at 6 h (ng/mL)
Cc1c2c(n3c1CCCNC(=O)[C@H](C)Nc1cc-3ccc1C(N)=O)CC(C)(C)CC2=O	146

* * *

- System: T98G
- assay.method.text: Antiproliferative activity against human T98G cells
metric.name: IC50 (µM)

structure.as.smiles	tgt	metric.name	quantitative.result
Cc1c2c(n3c1CCCNC(=O)[C@H](C)Nc1cc-3ccc1C(N)=O)CC(C)(C)CC2=O	T98G	IC50	0.042

* * *

- assay.method.text: Solubility of the compound
- Assay type: physicochemical

structure.as.smiles	solubility
Cc1c2c(n3c1CCCN(C(=O)[C@@H](C)N)[C@H](C)CNc1cc-3ccc1C(N)=O)CC(C)(C)CC2=O	> 100 µg/mL
CC(=O)NCCN1CCCc2c(C)c3c(n2-c2ccc(C(N)=O)c(c2)N[C@@H](C)C1=O)CC(C)(C)CC3=O	> 100 µg/mL
CC(=O)N1CCCc2c(C)c3c(n2-c2ccc(C(N)=O)c(c2)N[C@@H](C)C1)CC(C)(C)CC3=O	69 µg/mL
Cc1c2c(n3c1CCCN(C(=O)CN(C)C)[C@H](C)CNc1cc-3ccc1C(N)=O)CC(C)(C)CC2=O	> 100 µg/mL
Cc1c2c(n3c1CCCN(CCN)C(=O)[C@H](C)Nc1cc-3ccc1C(N)=O)CC(C)(C)CC2=O	> 100 µg/mL

* * *

Reported IC50 values are given for each entry in this list.
- tgt: Heat shock protein HSP90 (Homo sapiens, UniProt P07900+P08238)
- assay.method.text: Inhibition of HSP90 in human HCT-116 cells expressing V-Src-firefly luciferase fusion protein after 3 to 6 hrs
- Assay type: cell-based
metric.name: IC50 (nM)

structure.as.smiles	metric.name	op	quantitative.result
Cc1c2c(n3c1CCCNC(=O)[C@H](C)Nc1cc-3ccc1C(N)=O)CC(C)(C)CC2=O	IC50	=	79
Cc1c2c(n3c1CC(=O)N(C(C)C)CC[C@H](C)Nc1cc-3ccc1C(N)=O)CC(C)(C)CC2=O	IC50	=	278
Cc1c2c(n3c1CC(=O)NCC[C@H](C)Nc1cc-3ccc1C(N)=O)CC(C)(C)CC2=O	IC50	=	522
CC(=O)NCCN1CC[C@H](C)Nc2cc(ccc2C(N)=O)-n2c(c(C)c3c2CC(C)(C)CC3=O)CC1=O	IC50	>	5000
CC(=O)N1CCc2c(C)c3c(n2-c2ccc(C(N)=O)c(c2)N[C@@H](C)CC1)CC(C)(C)CC3=O	IC50	=	108
Cc1c2c(n3c1CCCN(C(=O)[C@@H](C)N)[C@H](C)CNc1cc-3ccc1C(N)=O)CC(C)(C)CC2=O	IC50	>	5000
CC(=O)N1CCCc2c(C)c3c(n2-c2ccc(C(N)=O)c(c2)N[C@@H](C)C1)CC(C)(C)CC3=O	IC50	=	111
CC(=O)NCCN1CCCc2c(C)c3c(n2-c2ccc(C(N)=O)c(c2)N[C@@H](C)C1=O)CC(C)(C)CC3=O	IC50	=	15771

* * *

Reported IC50 values are given for each entry in this list.
- tgt: Heat shock protein HSP90 (Homo sapiens, UniProt P07900+P08238)
- assay.method.text: Inhibition of HSP90 in human HCT-116 cells expressing V-Src-firefly luciferase fusion protein after 3 to 6 hrs
- Format: cell-based
metric.name: IC50

structure.as.smiles	metric.name	result
Cc1c2c(n3c1CCN(C(=O)CN(C)C)CC[C@H](C)Nc1cc-3ccc1C(N)=O)CC(C)(C)CC2=O	IC50	109 nM
CC(=O)NCC(=O)N1CCc2c(C)c3c(n2-c2ccc(C(N)=O)c(c2)N[C@@H](C)CC1)CC(C)(C)CC3=O	IC50	674 nM
Cc1c2c(n3c1CC(=O)N(CCN(C)C)CC[C@H](C)Nc1cc-3ccc1C(N)=O)CC(C)(C)CC2=O	IC50	249 nM
Cc1c2c(n3c1CCCNC(=O)[C@@H](C)Nc1cc-3ccc1C(N)=O)CC(C)(C)CC2=O	IC50	123 nM
Cc1c2c(n3c1CCCN(C)C(=O)[C@H](C)Nc1cc-3ccc1C(N)=O)CC(C)(C)CC2=O	IC50	60 nM
Cc1c2c(n3c1CCN(C(=O)CCN)CC[C@H](C)Nc1cc-3ccc1C(N)=O)CC(C)(C)CC2=O	IC50	6183 nM
CC(=O)N1CCCc2c(C)c3c(n2-c2ccc(C(N)=O)c(c2)NC[C@H]1C)CC(C)(C)CC3=O	IC50	1159 nM
Cc1c2c(n3c1CCCN[C@H](C)CNc1cc-3ccc1C(N)=O)CC(C)(C)CC2=O	IC50	47 nM
Cc1c2c(n3c1CC(=O)N(C)CC[C@H](C)Nc1cc-3ccc1C(N)=O)CC(C)(C)CC2=O	IC50	160 nM
Cc1c2c(n3c1CCCN(CCN)C(=O)[C@H](C)Nc1cc-3ccc1C(N)=O)CC(C)(C)CC2=O	IC50	> 20000 nM
Cc1c2c(n3c1CCCN(C(=O)CN(C)C)[C@H](C)CNc1cc-3ccc1C(N)=O)CC(C)(C)CC2=O	IC50	> 5000 nM
Cc1c2c(n3c1CCCNC(=O)C[C@H](C)Nc1cc-3ccc1C(N)=O)CC(C)(C)CC2=O	IC50	1842 nM
Cc1c2c(n3c1CCN(C(=O)CN)CC[C@H](C)Nc1cc-3ccc1C(N)=O)CC(C)(C)CC2=O	IC50	917 nM
COCCN1CC[C@H](C)Nc2cc(ccc2C(N)=O)-n2c(c(C)c3c2CC(C)(C)CC3=O)CC1=O	IC50	108 nM
